tested on: Acinetobacter baumannii NCTC 13304 (OXA-27); assay type: cell-based; settings: NCTC 13304
Bridge positions count the residues as written; N and C are the ends. Square brackets hold non-standard residues; d marks the D form. Peptide text beside a SMILES is read from it. * marks the point of attachment. Nonanoyl = CCCCCCCCC(=O)*; dDab = NCC[C@@H](N)C(=O)O; Heptanoyl = CCCCCCC(=O)*; Octanoyl = CCCCCCCC(=O)*; Orn = NCCC[C@H](N)C(=O)O; Dab = NCC[C@H](N)C(=O)O; Dap = NC[C@H](N)C(=O)O
The reader will find reported MIC values listed item by item below.
Just the number please, in µg/mL, no unit attached.

The examples below pair each entry with its known result.
COMPOUND	SUBJECT OF TEST	MIC [µg/mL]
CCCCCCCCC(=O)N[C@@H](CCN)C(=O)N[C@H](C(=O)N[C@@H](CCCN)C(=O)N[C@H]1CCNC(=O)[C@H]([C@@H](C)O)NC(=O)[C@H](CCN)NC(=O)[C@H](CCN)NC(=O)[C@H]([C@@H](C)O)NC(=O)[C@@H](Cc2ccccc2)NC(=O)[C@H](CCN)NC1=O)[C@@H](C)O [Compound 30] (Nonanoyl-[Dab]T[Orn][Dab][Dab][dF]T[Dab][Dab]T; lactam 4-C)	Acinetobacter baumannii NCTC 13304 (OXA-27)	0.06
CCCCCCC(=O)N[C@@H](CN)C(=O)N[C@H](C(=O)N[C@H](CCN)C(=O)N[C@H]1CCNC(=O)[C@H]([C@@H](C)O)NC(=O)[C@H](CCN)NC(=O)[C@H](CCN)NC(=O)[C@H](CC(C)C)NC(=O)[C@@H](CC(C)C)NC(=O)[C@H](CCN)NC1=O)[C@@H](C)O [Compound 99] (Heptanoyl-[Dap]T[dDab][Dab][Dab][dL]L[Dab][Dab]T; lactam 4-C)	Acinetobacter baumannii NCTC 13304 (OXA-27)	0.03

Sample CCCCCCCCC(=O)N[C@@H](CCN)C(=O)N[C@H](C(=O)N[C@@H](CCCN)C(=O)N[C@H]1CCNC(=O)[C@H]([C@@H](C)O)NC(=O)[C@H](CCN)NC(=O)[C@H](CCN)NC(=O)[C@H](CC(C)C)NC(=O)[C@@H](Cc2ccccc2)NC(=O)[C@H](CCN)NC1=O)[C@@H](C)O [Compound 50] (Nonanoyl-[Dab]T[Orn][Dab][Dab][dF]L[Dab][Dab]T; lactam 4-C) — what was its MIC?
0.06

And the next one, CCCCCCCC(=O)N[C@@H](CN)C(=O)N[C@H](C(=O)N[C@H](CCN)C(=O)N[C@H]1CCNC(=O)[C@H]([C@@H](C)O)NC(=O)[C@H](CCN)NC(=O)[C@H](CCN)NC(=O)[C@H](CC(C)C)NC(=O)[C@@H](CC(C)C)NC(=O)[C@H](CCN)NC1=O)[C@@H](C)O [Compound 98] (Octanoyl-[Dap]T[dDab][Dab][Dab][dL]L[Dab][Dab]T; lactam 4-C) ?
0.03

###

test: Nephrotoxicity assay: in vitro cytotoxicity of HK-2 cells by CCK-8 assay; assay type: cell-based; conditions: human, HK-2 cells (human renal), 72 h incubation with drug-containing medium
Bridge positions count the residues as written; N and C are the ends. Square brackets hold non-standard residues; d marks the D form. Peptide text beside a SMILES is read from it. * marks the point of attachment. Nonanoyl = CCCCCCCCC(=O)*; X1 = CC[C@H](C)CCCCC(=O)*; Heptanoyl = CCCCCCC(=O)*; Orn = NCCC[C@H](N)C(=O)O; dDap = NC[C@@H](N)C(=O)O; Dab = NCC[C@H](N)C(=O)O; Dap = NC[C@H](N)C(=O)O
OBSERVED PROPERTY: IC50 at 72 h (µg/mL)
The reply should contain only the number, in µg/mL.

Use the examples below as a reference point.
MOLECULE	OBSERVED PROPERTY	ENDPOINT RESULT
CCCCCCCCC(=O)N[C@@H](CCN)C(=O)N[C@H](C(=O)N[C@H](CO)C(=O)N[C@H]1CCNC(=O)[C@H]([C@@H](C)O)NC(=O)[C@H](CCN)NC(=O)[C@H](CCN)NC(=O)[C@H]([C@@H](C)O)NC(=O)[C@@H](Cc2ccccc2)NC(=O)[C@H](CCCN)NC1=O)[C@@H](C)O [Compound 70] (Nonanoyl-[Dab]T[dS][Dab][Orn][dF]T[Dab][Dab]T; lactam 4-C)	IC50 at 72 h	384
CCCCCCC(=O)N[C@@H](CCN)C(=O)N[C@H](C(=O)N[C@@H](CN)C(=O)N[C@H]1CCNC(=O)[C@H]([C@@H](C)O)NC(=O)[C@H](CCN)NC(=O)[C@H](CCN)NC(=O)[C@H](CC(C)C)NC(=O)[C@@H](Cc2ccccc2)NC(=O)[C@H](CCN)NC1=O)[C@@H](C)O [Compound 39] (Heptanoyl-[Dab]T[Dap][Dab][Dab][dF]L[Dab][Dab]T; lactam 4-C)	IC50 at 72 h	357

Entry under review: CC[C@H](C)CCCCC(=O)N[C@@H](CCN)C(=O)N[C@H](C(=O)N[C@H](CN)C(=O)N[C@H]1CCNC(=O)[C@H]([C@@H](C)O)NC(=O)[C@H](CCN)NC(=O)[C@H](CCN)NC(=O)[C@H](CC(C)C)NC(=O)[C@@H](Cc2ccccc2)NC(=O)[C@H](CCN)NC1=O)[C@@H](C)O [Compound 31] (X1-[Dab]T[dDap][Dab][Dab][dF]L[Dab][Dab]T; lactam 4-C) . Reported IC50 at 72 h?
222

###

system: Klebsiella pneumoniae KPN+19-15; format: cell-based; conditions: KPN+19-15
Bridge positions count the residues as written; N and C are the ends. Square brackets hold non-standard residues; d marks the D form. Peptide text beside a SMILES is read from it. * marks the point of attachment. Heptanoyl(6-Me) = CC(C)CCCCC(=O)*; dOrn = NCCC[C@@H](N)C(=O)O; Nonanoyl = CCCCCCCCC(=O)*; X1 = CC[C@H](C)CCCCC(=O)*; dDab = NCC[C@@H](N)C(=O)O; Octanoyl = CCCCCCCC(=O)*; Orn = NCCC[C@H](N)C(=O)O; dDap = NC[C@@H](N)C(=O)O; Dab = NCC[C@H](N)C(=O)O; Dap = NC[C@H](N)C(=O)O
OBSERVED PROPERTY: MIC

Examples from the recorded data:
MOLECULE	MIC
CCCCCCCC(=O)N[C@@H](CCCN)C(=O)N[C@H](C(=O)N[C@H](CO)C(=O)N[C@H]1CCNC(=O)[C@H]([C@@H](C)O)NC(=O)[C@H](CCN)NC(=O)[C@H](CCN)NC(=O)[C@H]([C@@H](C)O)NC(=O)[C@@H](Cc2ccccc2)NC(=O)[C@H](CCN)NC1=O)[C@@H](C)O [Compound 58] (Octanoyl-[Orn]T[dS][Dab][Dab][dF]T[Dab][Dab]T; lactam 4-C)	0.5 µg/mL
CCCCCCCC(=O)N[C@@H](CCN)C(=O)N[C@H](C(=O)N[C@H](CCCN)C(=O)N[C@H]1CCNC(=O)[C@H]([C@@H](C)O)NC(=O)[C@H](CCN)NC(=O)[C@H](CCN)NC(=O)[C@H](CC(C)C)NC(=O)[C@@H](Cc2ccccc2)NC(=O)[C@H](CCN)NC1=O)[C@@H](C)O [Compound 43] (Octanoyl-[Dab]T[dOrn][Dab][Dab][dF]L[Dab][Dab]T; lactam 4-C)	0.125 µg/mL
CC(C)CCCCC(=O)N[C@@H](CCN)C(=O)N[C@H](C(=O)N[C@H](CCCN)C(=O)N[C@H]1CCNC(=O)[C@H]([C@@H](C)O)NC(=O)[C@H](CCN)NC(=O)[C@H](CCN)NC(=O)[C@H]([C@@H](C)O)NC(=O)[C@@H](Cc2ccccc2)NC(=O)[C@H](CCN)NC1=O)[C@@H](C)O [Compound 22] ({Heptanoyl(6-Me)}-[Dab]T[dOrn][Dab][Dab][dF]T[Dab][Dab]T; lactam 4-C)	0.125 µg/mL

If you can, please state the reported MIC value of CC[C@H](C)CCCCC(=O)N[C@@H](CCN)C(=O)N[C@H](C(=O)N[C@H](CN)C(=O)N[C@H]1CCNC(=O)[C@H]([C@@H](C)O)NC(=O)[C@H](CCN)NC(=O)[C@H](CCN)NC(=O)[C@H]([C@@H](C)O)NC(=O)[C@H](Cc2ccccc2)NC(=O)[C@H](CCN)NC1=O)[C@@H](C)O [Compound 101] (X1-[Dab]T[dDap][Dab][Dab]FT[Dab][Dab]T; lactam 4-C) .
>64 µg/mL

Another molecule to look at: CCCCCCCCC(=O)N[C@@H](CCN)C(=O)N[C@H](C(=O)N[C@H](CCN)C(=O)N[C@H]1CCNC(=O)[C@H]([C@@H](C)O)NC(=O)[C@H](CCN)NC(=O)[C@H](CCN)NC(=O)[C@H]([C@@H](C)O)NC(=O)[C@@H](Cc2ccccc2)NC(=O)[C@H](CCN)NC1=O)[C@@H](C)O [Compound 15] (Nonanoyl-[Dab]T[dDab][Dab][Dab][dF]T[Dab][Dab]T; lactam 4-C)
0.06 µg/mL

Queued: CCCCCCCC(=O)N[C@@H](CCN)C(=O)N[C@H](C(=O)N[C@H](CO)C(=O)N[C@H]1CCNC(=O)[C@H]([C@@H](C)O)NC(=O)[C@H](CCN)NC(=O)[C@H](CCN)NC(=O)[C@H]([C@@H](C)O)NC(=O)[C@@H](Cc2ccccc2)NC(=O)[C@H](CN)NC1=O)[C@@H](C)O [Compound 63] (Octanoyl-[Dab]T[dS][Dab][Dap][dF]T[Dab][Dab]T; lactam 4-C)
0.5 µg/mL

Now consider CC(C)CCCCC(=O)N[C@@H](CCCN)C(=O)N[C@H](C(=O)N[C@H](CO)C(=O)N[C@H]1CCNC(=O)[C@H]([C@@H](C)O)NC(=O)[C@H](CCN)NC(=O)[C@H](CCN)NC(=O)[C@H]([C@@H](C)O)NC(=O)[C@@H](Cc2ccccc2)NC(=O)[C@H](CCN)NC1=O)[C@@H](C)O [Compound 57] ({Heptanoyl(6-Me)}-[Orn]T[dS][Dab][Dab][dF]T[Dab][Dab]T; lactam 4-C) and answer again.
0.5 µg/mL

Next entry: CCCCCCCCC(=O)N[C@@H](CCN)C(=O)N[C@H](C(=O)N[C@H](CO)C(=O)N[C@H]1CCNC(=O)[C@H]([C@@H](C)O)NC(=O)[C@H](CCCN)NC(=O)[C@H](CCN)NC(=O)[C@H]([C@@H](C)O)NC(=O)[C@@H](Cc2ccccc2)NC(=O)[C@H](CCN)NC1=O)[C@@H](C)O [Compound 90] (Nonanoyl-[Dab]T[dS][Dab][Dab][dF]T[Dab][Orn]T; lactam 4-C)
0.5 µg/mL

And the next one, CC(C)CCCCC(=O)N[C@@H](CCN)C(=O)N[C@H](C(=O)N[C@H](CO)C(=O)N[C@H]1CCNC(=O)[C@H]([C@@H](C)O)NC(=O)[C@H](CN)NC(=O)[C@H](CCN)NC(=O)[C@H]([C@@H](C)O)NC(=O)[C@@H](Cc2ccccc2)NC(=O)[C@H](CCN)NC1=O)[C@@H](C)O [Compound 82] ({Heptanoyl(6-Me)}-[Dab]T[dS][Dab][Dab][dF]T[Dab][Dap]T; lactam 4-C) ?
0.5 µg/mL

Now consider CCCCCCCCC(=O)N[C@@H](CCN)C(=O)N[C@H](C(=O)N[C@H](CO)C(=O)N[C@H]1CCNC(=O)[C@H]([C@@H](C)O)NC(=O)[C@H](CCN)NC(=O)[C@H](CCN)NC(=O)[C@H]([C@@H](C)O)NC(=O)[C@@H](Cc2ccccc2)NC(=O)[C@H](CCCN)NC1=O)[C@@H](C)O [Compound 70] (Nonanoyl-[Dab]T[dS][Dab][Orn][dF]T[Dab][Dab]T; lactam 4-C) .
0.5 µg/mL

The measurements presented in this section are drawn from patent EP4725957A1.
